Can you tell me pest or weed control at 200 µg/mL for the items I'm about to list?
# Test system: Puccinia recondita f. sp. tritici
# test-details: Test I: wheat leaf rust, preventive spray on wheat seedlings, visual disease rating
# experimental-parameters: 192 h, read-out: Test I rating (% disease control)
Unit % implied. Number only.

Report pest or weed control at 200 µg/mL for Cc1nn(C)c(Oc2ccc(C#N)cc2F)c1-c1ccc(F)cc1Br [Compound 284] 100

Report pest or weed control at 200 µg/mL for COc1cc(F)c(-c2c(C)nn(C)c2Nc2ccc(Cl)cc2)c(F)c1 [Compound 22] 94

Report pest or weed control at 200 µg/mL for Cc1nn(C)c(Nc2c(F)cc(F)cc2F)c1-c1ccc(F)cc1Br [Compound 266] 100
